meta.source: patent US10745416B2

- measured_on: BaF3 KIF5B-RET_V804M (Homo sapiens, UniProt P07949, V804M, cells depend on it)
- Construct: fused on or other part: P33176 (Kinesin-1 heavy chain)
- Sequence (P07949 whole entry V804M, the tested form may be a part): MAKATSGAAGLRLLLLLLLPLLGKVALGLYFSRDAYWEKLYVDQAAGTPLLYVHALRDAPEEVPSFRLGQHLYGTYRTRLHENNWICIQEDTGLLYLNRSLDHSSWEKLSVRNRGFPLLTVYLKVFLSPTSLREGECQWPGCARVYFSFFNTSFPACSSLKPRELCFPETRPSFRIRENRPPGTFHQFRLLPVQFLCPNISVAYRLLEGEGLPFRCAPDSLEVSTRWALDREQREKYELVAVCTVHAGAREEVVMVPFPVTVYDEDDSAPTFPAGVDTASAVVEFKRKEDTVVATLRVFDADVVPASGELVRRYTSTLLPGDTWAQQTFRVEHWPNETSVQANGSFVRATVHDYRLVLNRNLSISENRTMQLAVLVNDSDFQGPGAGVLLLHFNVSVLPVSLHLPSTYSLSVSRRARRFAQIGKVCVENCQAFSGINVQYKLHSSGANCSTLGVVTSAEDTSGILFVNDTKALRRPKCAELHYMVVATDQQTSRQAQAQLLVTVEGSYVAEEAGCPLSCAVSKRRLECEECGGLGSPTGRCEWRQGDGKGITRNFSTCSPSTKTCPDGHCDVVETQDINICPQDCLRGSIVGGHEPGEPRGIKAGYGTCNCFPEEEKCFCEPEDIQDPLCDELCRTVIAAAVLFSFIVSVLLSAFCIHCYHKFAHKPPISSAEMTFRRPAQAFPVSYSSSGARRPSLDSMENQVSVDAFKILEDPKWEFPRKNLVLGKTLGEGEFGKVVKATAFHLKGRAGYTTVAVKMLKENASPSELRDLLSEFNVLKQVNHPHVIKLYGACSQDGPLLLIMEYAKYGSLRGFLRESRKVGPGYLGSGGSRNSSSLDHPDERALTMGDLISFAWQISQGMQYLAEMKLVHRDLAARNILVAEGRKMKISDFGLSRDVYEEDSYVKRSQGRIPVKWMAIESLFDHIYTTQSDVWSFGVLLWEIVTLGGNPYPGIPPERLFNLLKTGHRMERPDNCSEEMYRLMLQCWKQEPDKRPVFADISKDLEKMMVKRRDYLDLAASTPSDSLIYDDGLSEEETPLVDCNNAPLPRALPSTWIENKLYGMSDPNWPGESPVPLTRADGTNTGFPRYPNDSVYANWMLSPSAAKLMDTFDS
- test_method_notes: Cell proliferation assay (CellTiter-Glo, 72 hours)
- Assay type: cell-based
- condition_description: anti-cell proliferation, read-out: BaF3 KIF5B-RET_V804M IC50
measured_quantity: GI50 (µM)

Some solved cases for reference:
                                   compound  measured_value
0  C[C@H]1CCOc2ncc(F)cc2CN2c3nc4c(cnn4cc3O[C@H]3CCC[C@H]32)C(=O)N1               2
1  O=C1NC2(CCC2)CCOc2ncc(F)cc2CN2c3nc4c1cnn4cc3O[C@H]1CCC[C@H]12               5
2  C[C@H]1CNC(=O)c2cnn3cc4c(nc23)N(Cc2cc(F)cnc2O1)[C@@H]1CCCC[C@@H]1O4            4.62
3  C[C@H]1CNC(=O)c2cnn3cc4c(nc23)N(Cc2cc(F)ccc2O1)[C@@H]1CCC[C@@H]1O4               1
4  C[C@H]1CNC(=O)c2cnn3cc4c(nc23)N(Cc2cc(F)ccc2O1)[C@@H]1COC[C@@H]1O4               5
5  O=C1N[C@H](C(F)(F)F)COc2ncc(F)cc2CN2c3nc4c1cnn4cc3O[C@H]1CCC[C@H]12            1.07
6  C[C@@H]1COc2ncc(F)cc2CN2c3nc4c(cnn4cc3O[C@H]3CC[C@H]32)C(=O)N1            1.21
7  O=C1NCC(O)(O)COc2ncc(F)cc2CN2c3nc4c1cnn4cc3O[C@H]1CCC[C@H]12               4
8  C[C@@H]1CCOc2ncc(F)cc2CN2c3nc4c(cnn4cc3O[C@H]3CCC[C@H]32)C(=O)N1               5
9  O=C1NC2(COc3ncc(F)cc3CN3c4nc5c1cnn5cc4O[C@H]1CCC[C@H]13)CC(F)(F)C2               3

I: CC1CNC(=O)c2cnn3cc4c(nc23)N(Cc2cc(F)cnc2OC1)[C@@H]1CCC[C@@H]1O4 (stereo partly drawn)
II: O=C1NC[C@@H](CO)Oc2ncc(F)cc2CN2c3nc4c1cnn4cc3O[C@H]1CCC[C@H]12
// pick larger GI50 from pair: I vs II Let me know the label of the one you choose.
II

###

- measured_on: Src (Homo sapiens, UniProt P12931)
- Construct: purchased Reaction Biology Corporation (assay run at the CRO)
- Sequence (P12931 whole entry): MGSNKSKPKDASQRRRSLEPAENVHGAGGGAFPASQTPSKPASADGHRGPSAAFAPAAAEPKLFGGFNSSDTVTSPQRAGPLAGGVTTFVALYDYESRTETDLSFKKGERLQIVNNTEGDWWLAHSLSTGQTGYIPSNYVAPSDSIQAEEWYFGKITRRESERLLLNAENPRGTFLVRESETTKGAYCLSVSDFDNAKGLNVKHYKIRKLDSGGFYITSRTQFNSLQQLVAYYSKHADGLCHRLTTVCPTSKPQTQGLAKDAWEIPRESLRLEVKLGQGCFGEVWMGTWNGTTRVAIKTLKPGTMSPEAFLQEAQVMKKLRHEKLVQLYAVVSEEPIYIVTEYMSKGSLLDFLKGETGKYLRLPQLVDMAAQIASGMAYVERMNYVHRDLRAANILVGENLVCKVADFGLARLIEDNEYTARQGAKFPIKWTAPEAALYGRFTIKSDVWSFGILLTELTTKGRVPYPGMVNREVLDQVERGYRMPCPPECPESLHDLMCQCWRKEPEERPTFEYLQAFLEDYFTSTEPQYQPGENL
- test_method_notes: Biochemical kinase assay (Reaction Biology, 33P ATP)
- condition_description: 10 μM ATP
measured_quantity: IC50 (nM)

1: C[C@H]1CNC(=O)c2cnn3cc4c(nc23)N(Cc2cc(F)cnc2O1)[C@@H]1CCC[C@@H]1O4 [Compound 5]
2: C[C@H]1CNC(=O)c2cnn3cc4c(nc23)N(Cc2cc(F)ccc2O1)[C@@H]1CCC[C@@H]1O4 [Compound 1]
Pick one, 1 or 2 : lowest reported IC50. Refer to your chosen entry by its label in the reply.
2

###

- measured_on: RET (S904A) (Homo sapiens, UniProt P07949, S904A)
- Construct: purchased Reaction Biology Corporation (assay run at the CRO)
- Sequence (P07949 29-1114 S904A): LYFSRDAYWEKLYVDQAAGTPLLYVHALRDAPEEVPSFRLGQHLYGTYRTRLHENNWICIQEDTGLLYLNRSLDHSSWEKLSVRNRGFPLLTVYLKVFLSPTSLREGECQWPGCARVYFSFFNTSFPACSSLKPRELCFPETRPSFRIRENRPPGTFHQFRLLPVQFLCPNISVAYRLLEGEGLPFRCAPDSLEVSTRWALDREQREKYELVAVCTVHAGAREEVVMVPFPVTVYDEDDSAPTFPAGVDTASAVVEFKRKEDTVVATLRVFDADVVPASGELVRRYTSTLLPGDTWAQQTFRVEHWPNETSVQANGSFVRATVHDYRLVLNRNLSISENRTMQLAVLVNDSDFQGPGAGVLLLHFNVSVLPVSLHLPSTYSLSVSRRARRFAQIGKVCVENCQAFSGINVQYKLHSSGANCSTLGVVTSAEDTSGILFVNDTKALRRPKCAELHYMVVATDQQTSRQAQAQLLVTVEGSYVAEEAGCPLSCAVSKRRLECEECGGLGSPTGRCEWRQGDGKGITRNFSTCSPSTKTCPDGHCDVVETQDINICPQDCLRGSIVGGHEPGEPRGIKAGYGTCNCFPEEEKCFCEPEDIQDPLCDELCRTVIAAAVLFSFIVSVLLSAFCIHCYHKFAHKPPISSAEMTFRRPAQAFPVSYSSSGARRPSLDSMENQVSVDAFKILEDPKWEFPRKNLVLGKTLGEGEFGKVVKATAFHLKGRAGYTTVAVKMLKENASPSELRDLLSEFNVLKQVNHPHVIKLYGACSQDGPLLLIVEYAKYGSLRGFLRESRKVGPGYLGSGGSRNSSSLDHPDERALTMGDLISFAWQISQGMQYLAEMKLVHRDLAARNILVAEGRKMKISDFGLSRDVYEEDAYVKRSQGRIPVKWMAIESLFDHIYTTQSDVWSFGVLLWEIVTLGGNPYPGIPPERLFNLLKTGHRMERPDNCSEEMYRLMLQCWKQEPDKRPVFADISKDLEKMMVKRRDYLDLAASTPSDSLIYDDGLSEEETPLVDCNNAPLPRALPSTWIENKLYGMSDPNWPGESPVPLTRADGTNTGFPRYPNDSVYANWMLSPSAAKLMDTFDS
- test_method_notes: Biochemical kinase assay (Reaction Biology, 33P ATP)
- condition_description: 10 μM ATP
measured_quantity: IC50 (nM)

a: C[C@H]1CNC(=O)c2cnn3cc4c(nc23)N(Cc2cc(F)cnc2O1)[C@@H]1CCC[C@@H]1O4
b: C[C@H]1CNC(=O)c2cnn3cc4c(nc23)N(Cc2cc(F)ccc2O1)[C@@H]1CCC[C@@H]1O4
Which entry shows the lesser value of IC50 here, a or b ? To answer, give the label that identifies your chosen option.
b
